The measurements presented in this section are drawn from patent US20260015365A1.

experiment: Pharmacokinetics in SD rats after intravenous injection and single oral gavage, plasma LC-MS/MS
Format: in vivo
condition notes: male, rat, PO, 3 mg/kg
readout: Tmax (h)

line notation: CC(C)(NC(=O)[C@H]1[C@@H]2CNC[C@H]1C2)c1ncc2c(Br)cccn12
readout number: 1.42

---

experiment: Pharmacokinetics in SD rats after intravenous injection and single oral gavage, plasma LC-MS/MS
Format: in vivo
condition notes: male, rat, IV, 1 mg/kg, read-out: Vss

line notation: CC(C)(NC(=O)[C@H]1[C@@H]2CNC[C@H]1C2)c1ncc2c(Br)cccn12
Vd (L/kg): 2.38

---

experiment: Pharmacokinetics in SD rats after intravenous injection and single oral gavage, plasma LC-MS/MS
Assay type: in vivo
condition notes: male, rat, IV, 1 mg/kg
Method: SD rats (male, 6-8 weeks old, from JH Laboratory Animal Co., Ltd.) were used for intravenous injection and single oral gavage administration. Plasma samples were collected at 0.083, 0.25, 0.5, 1, 2, 4, 8, and 24 hours post-dose. The plasma samples were obtained by centrifugation (2000 rpm, 4° C., 5 min). […] The resulting solution was injected into the LC-MS/MS system. Drug concentrations in plasma were quantified using the LC-MS/MS method, and pharmacokinetic parameters were calculated accordingly.

line notation: CC(C)(NC(=O)[C@H]1[C@@H]2CNC[C@H]1C2)c1ncc2c(Br)cccn12
clearance [mL/min/kg]: 45.2

---

experiment: Pharmacokinetics in SD rats after intravenous injection and single oral gavage, plasma LC-MS/MS
Assay type: in vivo
condition notes: male, rat, IV, 1 mg/kg
readout: AUC(0-inf) (ng·h/mL)

line notation: CC(C)(NC(=O)[C@H]1[C@@H]2CNC[C@H]1C2)c1ncc2c(Br)cccn12
readout: AUC(0-inf)
unit name: ng·h/mL
readout number: 370

---

experiment: Pharmacokinetics in SD rats after intravenous injection and single oral gavage, plasma LC-MS/MS
Assay type: in vivo
condition notes: male, rat, PO, 3 mg/kg
readout: Cmax (ng/mL)

line notation: CC(C)(NC(=O)[C@H]1[C@@H]2CNC[C@H]1C2)c1ncc2c(Br)cccn12
readout: Cmax
readout number: 36.3

---

experiment: Pharmacokinetics in SD rats after intravenous injection and single oral gavage, plasma LC-MS/MS
Assay type: in vivo
condition notes: male, rat, IV, 1 mg/kg
readout: AUC(0-t)

line notation: CC(C)(NC(=O)[C@H]1[C@@H]2CNC[C@H]1C2)c1ncc2c(Br)cccn12
readout: AUC(0-t)
result: 361 ng·h/mL
